Origin of values: paper PMC8685691

Molecular target: SARS-CoV-2 spike RBD, WT, His-tagged (SARS-CoV-2 (WT), UniProt P0DTC2 319-532)
Experiment: BLI
Quantity: Kd

Endpoint output: Kd of RBD-PB6 (structured_RNA, 2'-fluoro pyrimidines) RNA: GGGGCCACCAACGACAUUUGUAAUUCCUGGACCGAUACUUCCGUCAGGACAGAGGUUGAUAUAAAUAGUGCCCAUGGAUCC . Value?
~18 nM
